# Test system: HepG2 Srxn1-GFP reporter cells (+30 nM CDDO-Me)
# assayRemarks: Srxn1-GFP intensity median modified Z-score relative to plate median; higher = stronger NRF2 / oxidative stress reporter activation, active = hit call of the paper
# testSettings: 10 µM; exposure time: 24h
Screen size: about 2,300 compounds; about 330 (14%) showed activity.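 Rule for the calls: active = median modified Z-score above 1.96; inactive = 1.96 or below.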 These entries were drawn from the full list.
Outcome (select one): TRUE (active), FALSE (inactive)

Query: GET /call?item= Cc1cc(=NC(=O)C2C(=O)c3ccccc3S(=O)(=O)N2C)[nH]o1 (configuration not stated) returns the recorded outcome of this test.
Reply: FALSE

Query: Which outcome did this test record for the compound "Cn1c(=O)c2nc(Br)[nH]c2n(C)c1=O" ?
Reply: FALSE

Query: Hi team, can someone confirm the assay call for "NCCc1cc[nH]n1" ?
Reply: FALSE

Query: Dear colleague, could you share the recorded outcome for CCC(N)C12CC3CC(CC(C3)C1)C2 (configuration not stated) when you have a moment?
Reply: FALSE

Query: Could you please tell me the result logged for O=C(O[C@@H]1Cc2c(O)cc(O)cc2OC1c1cc(=O)c(O)c2c(O)c(O)cc(C3Oc4cc(O)cc(O)c4C[C@H]3O)c2c1)c1cc(O)c(O)c(O)c1 (some centres not stated) in this assay?
Reply: FALSE

Query: Assay result, entry "C1N2CN3CN1CN(C2)C3" — outcome?
Reply: TRUE

Query: Assay outcome for CCC(C)C1NC(=O)C(CCNCS(=O)(=O)O)NC(=O)C(NC(=O)C(CCNCS(=O)(=O)O)NC(=O)C(NC(=O)C(CCNCS(=O)(=O)O)NC(=O)CCCCC(C)C)C(C)O)CCNC(=O)C(C(C)O)NC(=O)C(CCNCS(=O)(=O)O)NC(=O)C(CCNCS(=O)(=O)O)NC(=O)C(C(C)CC)NC1=O (configuration not stated) : what was it?
Reply: FALSE
